# study target: Histamine H4 receptor (Homo sapiens)
# Sequence (Q9H3N8 whole entry): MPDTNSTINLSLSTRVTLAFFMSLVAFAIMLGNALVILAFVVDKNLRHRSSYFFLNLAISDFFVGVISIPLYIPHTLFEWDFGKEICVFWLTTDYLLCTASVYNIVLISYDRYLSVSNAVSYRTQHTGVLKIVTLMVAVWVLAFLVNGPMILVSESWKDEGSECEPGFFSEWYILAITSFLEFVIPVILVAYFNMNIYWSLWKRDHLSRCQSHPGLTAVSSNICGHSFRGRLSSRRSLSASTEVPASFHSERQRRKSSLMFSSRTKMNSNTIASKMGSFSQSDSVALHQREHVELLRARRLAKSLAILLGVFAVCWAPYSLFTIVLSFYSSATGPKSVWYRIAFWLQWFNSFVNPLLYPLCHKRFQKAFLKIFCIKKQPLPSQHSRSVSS
# assay summary: Antagonist activity at H4R in human eosinophils assessed as inhibition of histamine-induced actin polymerisation
# Format: functional
property name: IC50 (nM)
# value in nM; strip the unit string

Please report IC50 for the following molecule: `CN[C@@H]1CCN(c2cc(NCC3CC3)nc(N)n2)C1`
1.3

* * *

# Lookup of reported bioavailability keyed by entry
# assay summary: Oral bioavailability in rat at 1 mg/kg
# Type: ADME, organism-based
# experimental parameters: in vivo
// note: answer is a bare numeric in %

Before answering, review these 2 worked examples.
CN1C[C@@H]2CN(C(=O)c3nc4cc(F)c(F)cc4[nH]3)C[C@@H]2C1
50
CN1C[C@@H]2CN(C(=N)c3nc4cc(F)c(F)cc4[nH]3)C[C@@H]2C1
20

Provide one value: measured bioavailability of `CNC1CN(c2cc(NCC(C)(C)C)nc(N)n2)C1`
57

Ref: ChEMBL document CHEMBL1914379
